Taken from patent US5936105A.

# measurement_target: Procine Intestinal Nuclear Vitamin D Receptor (Sus scrofa, UniProt A3RGC1)
# Sequence (A3RGC1 whole entry): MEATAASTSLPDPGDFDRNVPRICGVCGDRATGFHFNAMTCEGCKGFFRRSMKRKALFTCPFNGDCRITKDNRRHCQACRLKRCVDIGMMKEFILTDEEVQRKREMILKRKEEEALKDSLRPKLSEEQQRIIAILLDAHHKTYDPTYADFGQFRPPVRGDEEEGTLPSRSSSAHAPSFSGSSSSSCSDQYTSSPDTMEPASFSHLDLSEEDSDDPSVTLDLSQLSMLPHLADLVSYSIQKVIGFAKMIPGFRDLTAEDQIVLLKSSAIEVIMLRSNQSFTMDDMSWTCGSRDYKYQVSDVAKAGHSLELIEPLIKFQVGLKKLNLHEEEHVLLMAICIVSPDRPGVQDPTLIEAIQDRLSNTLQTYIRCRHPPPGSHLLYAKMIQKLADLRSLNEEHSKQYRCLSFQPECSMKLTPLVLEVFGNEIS
# reported_conditions: VDR binding, ratio to 1,25(OH)2 D3
measured_parameter: Activity vs. 1,25(OH)2 D3
Could you keep your reply to the number by itself?

C[C@@H](CCCC(C)(C)O)[C@H]1CC[C@H]2/C(=C/C=C3C[C@@H](O)C[C@H](O)C3)CCC[C@]12C [20-epi-19-nor-1,25(OH)2 D3, reference compound] :: 1.0

Continue with the next compound.
Entry under test: C[C@H](CCCC(C)(C)O)[C@H]1CC[C@@H]2/C(=C/C=C3C[C@@H](O)C[C@H](O)C3)CCC[C@@]21C [[27], 14-epi-19-nor-1α,25-dihydroxyvitamin D3] . Its Activity vs. 1,25(OH)2 D3 was 0.18
